- experimental protocol: chemical genetic growth profiling, strain panel (AID 1159580);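 further: tested at 20 µM; growth read once vehicle control cultures reached saturation at 30 °C; 1 = growth at the plate median or of vehicle wells; lower values mean less growth of the strain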
- condition set: S. cerevisiae deletion strains, growth OD, locus YEL061C, strain CIN8 (second series)
Out of some 5,500 compounds screened, about 2,000 (36%) were called active. Not shown: some 18% with an inconclusive outcome. No stated cut-off is given here; in the data, active means normalized growth mostly below about 0.91 (no sharp cut-off); inconclusive means no clear call, values can overlap the other calls; inactive means mostly above about 0.92. The list shows a part of the results.
Please state which outcome applies, choosing from active, inactive

Request: Write down the call the test reported for this molecule. Item: CN1CCN(CCCN2c3ccccc3Sc3ccc(C(F)(F)F)cc32)CC1
Result: active

Request: Tell me the assay call for NC(N)=NC(N)=Nc1ccccc1 please.
Result: inactive

Request: Status in this test for C=C(C)[C@H]1Cc2c(ccc3c2O[C@@H]2COc4cc(OC)c(OC)cc4[C@@H]2C3=O)O1 ?
Result: inactive

Request: // param item: CN1CCN(CCC=C2c3ccccc3Sc3ccc(S(=O)(=O)N(C)C)cc32)CC1 ; yields the recorded call
Result: inactive

Request: # outcome recorded in this test, key = CC[C@H]1OC(=O)[C@H](C)[C@@H](O[C@H]2C[C@@](C)(OC)[C@@H](O)[C@H](C)O2)[C@H](C)[C@@H](O[C@@H]2O[C@H](C)C[C@H](N(C)C)[C@H]2O)[C@](C)(O)C[C@@H](C)[C@@H]2N[C@@H](COCCOC)O[C@H]([C@H]2C)[C@]1(C)O
Result: inactive

Request: What did the test return for CC1(C)C=Cc2cc3ccc(=O)oc3cc2O1 ?
Result: inactive

Request: Called result for COc1cc2c(cc1OC)[C@@H]1C(=O)c3ccc4c(c3O[C@@H]1CO2)CC(C(C)C)O4 (some centres undefined)
Result: inactive

Request: Could you please tell me the result logged for c1ccc([C@H]2CN3CCSC3=N2)cc1 in this assay?
Result: inactive

Request: What outcome does the record of this test show for O=C(O)c1cc(=O)c2c(Cl)cc(Cl)cc2[nH]1 ?
Result: inactive

---

- experimental protocol: chemical genetic growth profiling, strain panel (AID 1159580)
- condition set: S. cerevisiae deletion strains, growth OD, locus YDR150W, strain NUM1, hits give low values
The campaign covered roughly 5,500 compounds. About 2,000 (36%) were called active. Not shown: some 18% with an inconclusive outcome. The list shows a part of the results.
assay endpoint: normalized growth
API doc: respond with a numeric literal and nothing else, no unit.

Request: Return reported normalized growth. Input compound: CC(=O)N[C@@H](Cc1c[nH]c2ccccc12)C(=O)O
Result: 1

Request: Return the recorded normalized growth value; entry: CC[C@@H](CO)NC(=O)[C@@H]1C=C2c3cccc4[nH]cc(c34)C[C@H]2N(C)C1
Result: 1

Request: Hello, please tell me recorded normalized growth for this one: NCCc1c[nH]c2ccccc12
Result: 0.967

Request: Supply reported normalized growth belonging to this compound: CC1=NN(c2cccc(S(N)(=O)=O)c2)C(=O)C1
Result: 0.985

Request: Identify measured normalized growth corresponding to Cc1ccc(-c2nn(-c3ccccc3)c(=O)c3ccccc23)cc1C
Result: 0.978

Request: Please supply the value of reported normalized growth for the item COc1ccc(CCN(C)CCCC(C#N)(c2cc(OC)c(OC)c(OC)c2)C(C)C)cc1OC (stereo unspecified)
Result: 1.01

---

Would you kindly list normalized growth for each of these molecules?
- experimental protocol: chemical genetic growth profiling, strain panel (AID 1159580)
- condition set: S. cerevisiae deletion strains, growth OD, locus YMR219W, strain ESC1, hits give low values
The whole screen tested about 5,500 compounds, of which about 2,000 (36%) were called active. Not shown: some 18% with an inconclusive outcome. The list shows a part of the results.
Just the number.

Request: Please report the measured normalized growth for Cc1ccc(-c2nn(-c3ccccc3)c(=O)c3ccccc23)cc1C
Result: 0.962

Request: Annotate the molecule O=C1c2ccccc2C(=O)C1c1ccccc1 with its measured normalized growth.
Result: 0.954

Request: Quickly give me recorded normalized growth for CC(=O)c1cc2cc(Br)ccc2oc1=O
Result: 0.96

Request: Identify measured normalized growth associated with C1CCN(CCC2CCCCN2)CC1 (stereo unspecified)
Result: 1

Request: Identify measured normalized growth corresponding to Cc1[nH]n(C)c(=O)c1N=Nc1ccc(Cl)cc1
Result: 0.924

Request: Please supply the value of reported normalized growth for the item O=C1C=C(Cl)CC(c2ccc(C(F)(F)F)cc2)C1 (stereo unspecified)
Result: 1.01

---

- experimental protocol: chemical genetic growth profiling, strain panel (AID 1159580)
- condition set: S. cerevisiae deletion strains, growth OD, locus YBR023C, strain chs3, hits give low values
The whole screen tested about 5,500 compounds, of which about 2,000 (36%) were called active. Another 18% or so got no clear call; they are omitted. Some of the results follow.
What normalized growth was measured for each of the following?
I'd appreciate a reply containing only the number, no unit.

Request: Supply normalized growth value. Item: CNS(=O)(=O)c1ccc(NC(=O)c2ccccc2C(=O)O)cc1
Result: 1

Request: Tell me normalized growth reported for CC1(C)S[C@@H]2[C@H](NC(=O)[C@H](C(=O)O)c3cccs3)C(=O)N2[C@H]1C(=O)O
Result: 1.01

Request: Give the value of normalized growth reported for the following: NC[C@H]1O[C@H](O[C@H]2[C@H](O)[C@@H](O[C@H]3O[C@H](CO)[C@@H](O)[C@H](N)[C@H]3O)[C@H](N)C[C@@H]2N)[C@H](N)C[C@@H]1O
Result: 1.01

Request: Find the measured normalized growth of CC1(C)S[C@@H]2[C@H](NC(=O)Cc3ccccc3)C(=O)N2[C@H]1C(=O)O and report it.
Result: 1.04

---

- experimental protocol: chemical genetic growth profiling, strain panel (AID 1159580);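 further: tested at 20 µM; growth read once vehicle control cultures reached saturation at 30 °C; 1 = growth at the plate median or of vehicle wells; lower values mean less growth of the strain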
- condition set: S. cerevisiae deletion strains, growth OD, locus YNL224C, strain SQS1
Screen size: about 5,500 compounds; about 2,000 (36%) were called active. Inconclusive results (about 18%) are left out. Rule as the data show it: active = normalized growth mostly below about 0.91 (no sharp cut-off); inconclusive = no clear call, values can overlap the other calls; inactive = mostly above about 0.92. This is one part of the list.
Choose the fitting class; nothing outside yes (1) = active, no (0) = inactive is accepted.

Request: Kindly provide the recorded test outcome for the following compound: Cc1cc(C(C)(C)C)c(O)c(C)c1CC1=NCCN1
Result: no (0)

Request: I would be grateful if you could indicate the recorded call for CN1CCN(CCCN2c3ccccc3Sc3ccc(C(F)(F)F)cc32)CC1 .
Result: yes (1)

Request: Query: recorded result category for Cc1nc(N=Nc2ccc(S(=O)(=O)O)cc2S(=O)(=O)O)c(COP(=O)(O)O)c(C=O)c1O in this test
Result: no (0)

Request: For NC1CC1c1ccccc1 (stereo not given) , which call appears in the assay record?
Result: no (0)

Request: # outcome recorded in this test, key = CN(C)S(=O)(=O)c1ccc2c(c1)/C(=C/c1cc3c([nH]1)CCCC3)C(=O)N2
Result: no (0)

Request: Short answer needed: outcome of this test for NC(=O)CNCCC(c1ccccc1)c1ccccc1 ?
Result: no (0)

Request: Lab log entry: CNC(=O)[C@H]1O[C@@H](n2cnc3c(NCc4ccc(N)cc4)ncnc32)C(O)[C@H]1O (stereo not given in full) — outcome as called in the assay?
Result: no (0)

Request: I'd appreciate the recorded outcome for CN1CCN(CC/C=C2/c3ccccc3Sc3ccc(S(=O)(=O)N(C)C)cc32)CC1 from this test.
Result: no (0)

Request: Recorded call for CC(C)[C@@H]1NC(=O)[C@H](CCCCN)NC(=O)[C@@H](Cc2c[nH]c3ccccc23)NC(=O)[C@H](Cc2ccc(O)cc2)NC(=O)[C@H](C)N(C)C(=O)[C@H](Cc2ccccc2)NC1=O ?
Result: no (0)

Request: # fetch the recorded call for CC(=O)[C@@]1(O)CC[C@H]2[C@@H]3CCC4=CC(=O)CC[C@]4(C)[C@H]3CC[C@@]21C here
Result: no (0)

---

Give measured normalized growth for each item. Keep answers brief.
- experimental protocol: chemical genetic growth profiling, strain panel (AID 1159580);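 further: tested at 20 µM; growth read once vehicle control cultures reached saturation at 30 °C; 1 = growth at the plate median or of vehicle wells; lower values mean less growth of the strain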
- condition set: S. cerevisiae deletion strains, growth OD, locus YDR101C, strain arx1, hits give low values
About 2,000 (36%) of roughly 5,500 compounds were called active. Inconclusive results (about 18%) are left out. The list shows a part of the results.

Request: Give the measured normalized growth for COc1c2ccoc2cc2oc(C)cc(=O)c12
Result: 1.02 (inactive)

Request: Identify measured normalized growth associated with CCc1cccc2c3c([nH]c12)C(CC)(CC(=O)O)OCC3 (stereo not drawn)
Result: 1 (inactive)

Request: Supply measured normalized growth of COc1ccc2c(=O)ccoc2c1 in your reply.
Result: 0.995 (inactive)

---

- experimental protocol: chemical genetic growth profiling, strain panel (AID 1159580);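 further: tested at 20 µM; growth read once vehicle control cultures reached saturation at 30 °C; 1 = growth at the plate median or of vehicle wells; lower values mean less growth of the strain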
- condition set: S. cerevisiae deletion strains, growth OD, locus YDR297W, strain sur2, hits give low values
The campaign covered roughly 5,500 compounds. About 2,000 (36%) were called active. Inconclusive results (about 18%) are left out. The list shows a part of the results.
Please go through the items and note down their normalized growth.
Could you keep your reply to the number by itself?

Request: For the molecule CCOc1ccc(C(=O)c2cc(O)c(OC)c(OC)c2O)cc1 , give its reported normalized growth.
Result: 0.995

Request: Determine its reported normalized growth: CCCCCCCCCCCCCCCCCCOCC(O)CO (stereo not given)
Result: 0.995

Request: Return normalized growth for the following molecule: CC(=O)OC1CCC2(C)C3CC(=O)C4(C)C(CC5OC6(CCC(C)CO6)[C@@H](C)C54)C3CC[C@H]2C1 (stereo not given in full)
Result: 0.978

Request: Annotate the molecule CC(=O)O[C@@H]1CC[C@]2(C)C3CC[C@]4(C)C(=O)CCC4C3CC[C@H]2C1 (stereo not given in full) with its measured normalized growth.
Result: 1.01

Request: Read the entry CC(=O)NO and write its reported normalized growth.
Result: 0.977

Request: Please report normalized growth for the following molecule: NC(=O)NO
Result: 1.02

Request: Name the recorded normalized growth of the item CC(=O)O[C@H]1CC[C@]2(C)C3CC[C@@]4(C)C(CC5O[C@@]6(CCC(C)CO6)[C@@H](C)C54)C3CC[C@@H]2C1 (stereo not given in full) in your answer.
Result: 1

Request: Please list normalized growth recorded for the molecule CN(C)CCc1c[nH]c2ccc(CS(=O)(=O)N3CCCC3)cc12
Result: 0.996

Request: Report normalized growth, nothing else, for this molecule: CCCc1nc2c(C)cc(-c3nc4ccccc4n3C)cc2n1Cc1ccc(-c2ccccc2C(=O)O)cc1
Result: 1.01

Request: Query normalized growth for CNS(=O)(=O)Cc1ccc2[nH]cc(CCN(C)C)c2c1
Result: 1.02

Request: Consider the molecule CN1C(=O)CCS(=O)(=O)C1c1ccc(Cl)cc1 (stereo not given) . State its measured normalized growth.
Result: 0.983

Request: Using known records, supply normalized growth for C1CCC(C(CC2CCCCN2)C2CCCCC2)CC1 (stereo not given)
Result: 0.987

Request: Supply reported normalized growth belonging to this molecule: CCNc1nc(Cl)nc(NCC)n1
Result: 0.982

Request: Respond only with normalized growth recorded for CC(=O)O[C@H]1CC[C@]2(C)C3CC(=O)[C@]4(C)C(C(C)=O)=CCC4C3CC[C@H]2C1 (stereo not given in full)
Result: 0.998

Request: // fetch normalized growth given entry CNCC[C@@H](Oc1ccccc1)c1ccccc1
Result: 0.98

Request: Provide measured normalized growth value, entry: COc1c2c(cc3c1OCO3)C13C=C[C@H](OC)CC1N(C2)CC3O (stereo not given in full)
Result: 0.976

Request: Please report normalized growth for the following molecule: CN(C)CCc1c[nH]c2ccc(C[C@H]3COC(=O)N3)cc12
Result: 1.01

Request: For the molecule CCOc1ccc(NC(C)=O)cc1 , give its measured normalized growth value.
Result: 1.02

Request: Return normalized growth (reported value) for this molecule: CCCCc1nc(Cl)c(CO)n1Cc1ccc(-c2ccccc2-c2nn[nH]n2)cc1
Result: 0.993

Request: Give me measured normalized growth, please, for this molecule: COc1cc2cc3c4cc(OC)c(OC)cc4cc[n+]3c(C)c2cc1OC
Result: 1.01
